biological target: Human GPR35 (Homo sapiens, UniProt Q9HC97); construct: Tango receptor fusion (protease cleavage site + Gal4-VP16 transcription factor); assay: Beta-Arrestin Assay; details: Human GPR35 expressing JumpIn 294S Tango U2OS cells; compounds overnight; LiveBLAzer-FRET B/G (CCF4-AM) readout
Sequence (Q9HC97 whole entry, the tested form may be a part): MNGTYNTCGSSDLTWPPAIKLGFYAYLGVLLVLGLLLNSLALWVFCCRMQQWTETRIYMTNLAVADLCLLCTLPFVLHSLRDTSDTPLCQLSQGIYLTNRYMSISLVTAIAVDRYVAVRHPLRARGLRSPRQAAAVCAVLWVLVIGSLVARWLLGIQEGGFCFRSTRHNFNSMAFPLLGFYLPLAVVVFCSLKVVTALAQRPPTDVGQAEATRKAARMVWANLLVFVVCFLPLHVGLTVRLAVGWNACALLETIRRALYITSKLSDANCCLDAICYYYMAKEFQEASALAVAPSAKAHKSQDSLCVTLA
pEC50: −log10 of the molar value.
Recorded endpoint: pEC50

"CCOc1cc(-c2cccc(CCO)c2)ccc1-c1nc2[nH]nnc2c(=O)[nH]1" has a reported pEC50 of 5.00 to 6.00

"CCOc1cc(-c2cccc(CCC(=O)NO)c2)ccc1-c1nc2[nH]nnc2c(=O)[nH]1" has a reported pEC50 of 5.00 to 6.00

"CCOc1cc(-c2ccc(OCCN)c(CCC(=O)O)c2)ccc1-c1nc2[nH]nnc2c(=O)[nH]1" has a reported pEC50 of ≥ 6.00

"CCOc1cc(-c2cccc(CCc3noc(=O)[nH]3)c2)ccc1-c1nc2[nH]nnc2c(=O)[nH]1" has a reported pEC50 of ≥ 6.00

* * *

Provide the recorded pEC50 for the entries that follow.
target: Human GPR35 (Homo sapiens, UniProt Q9HC97); construct: Tango receptor fusion (protease cleavage site + Gal4-VP16 transcription factor); host or cells: Jump-In Tango U2OS cells; assay: Beta-Arrestin Assay; type: cell-based; details: Human GPR35 expressing JumpIn 294S Tango U2OS cells; compounds overnight; LiveBLAzer-FRET B/G (CCF4-AM) readout
pEC50: −log10 of the molar value.

Bench note, Human GPR35 (Homo sapiens, UniProt Q9HC97): CCOc1cc(-c2cc(O)cc(CCC(N)=O)c2)ccc1-c1nc2[nH]nnc2c(=O)[nH]1 [Compound 114] , pEC50 reads ≥ 6.00

Bench note, Human GPR35 (Homo sapiens, UniProt Q9HC97): CCOc1cc(-c2cc(O)cc(CCC(=O)O)c2)ccc1-c1nc2[nH]nnc2c(=O)[nH]1 [Compound 113] , pEC50 reads ≥ 6.00

Bench note, Human GPR35 (Homo sapiens, UniProt Q9HC97): CCOc1cc(-c2cccc(CCc3nnn[nH]3)c2)ccc1-c1nc2[nH]nnc2c(=O)[nH]1 [Compound 124] , pEC50 reads ≥ 6.00

Bench note, Human GPR35 (Homo sapiens, UniProt Q9HC97): CCOc1cc(-c2cc(CCC(=O)O)cc(OCCN)c2)ccc1-c1nc2[nH]nnc2c(=O)[nH]1 [Compound 115] , pEC50 reads 5.00 to 6.00

Bench note, Human GPR35 (Homo sapiens, UniProt Q9HC97): CCOc1cc(-c2cccc(CCC(=O)NOC)c2)ccc1-c1nc2[nH]nnc2c(=O)[nH]1 [Compound 118] , pEC50 reads 5.00 to 6.00

Bench note, Human GPR35 (Homo sapiens, UniProt Q9HC97): CCOc1cc(-c2ccc(O)cc2O)ccc1-c1nc2[nH]nnc2c(=O)[nH]1 [Compound 110] , pEC50 reads 5.00 to 6.00

Bench note, Human GPR35 (Homo sapiens, UniProt Q9HC97): CCOc1cc(-c2ccc(C(N)=O)cc2)ccc1-c1nc2[nH]nnc2c(=O)[nH]1 [Compound 101] , pEC50 reads ≥ 6.00

Bench note, Human GPR35 (Homo sapiens, UniProt Q9HC97): CCOc1cc(-c2ccc(C(O)(O)C(F)(F)F)cc2)ccc1-c1nc2[nH]nnc2c(=O)[nH]1 [Compound 128] , pEC50 reads ≥ 6.00

Bench note, Human GPR35 (Homo sapiens, UniProt Q9HC97): CCOc1cc(-c2cc(O)cc(O)c2)ccc1-c1nc2[nH]nnc2c(=O)[nH]1 [Compound 111] , pEC50 reads ≥ 6.00

Bench note, Human GPR35 (Homo sapiens, UniProt Q9HC97): CCOc1cc(-c2cccc(S(N)(=O)=O)c2)ccc1-c1nc2[nH]nnc2c(=O)[nH]1 [Compound 106] , pEC50 reads 5.00 to 6.00

Bench note, Human GPR35 (Homo sapiens, UniProt Q9HC97): CCOc1cc(-c2cc(O)cc(/C=C/C(=O)O)c2)ccc1-c1nc2[nH]nnc2c(=O)[nH]1 [Compound 112] , pEC50 reads ≥ 6.00

Bench note, Human GPR35 (Homo sapiens, UniProt Q9HC97): CCOc1cc(-c2cc(O)ccc2O)ccc1-c1nc2[nH]nnc2c(=O)[nH]1 [Compound 109] , pEC50 reads ≥ 6.00

Bench note, Human GPR35 (Homo sapiens, UniProt Q9HC97): CCOc1cc(-c2cccc(CC3SC(=O)NC3=O)c2)ccc1-c1nc2[nH]nnc2c(=O)[nH]1 (stereo not shown) [Compound 121] , pEC50 reads ≥ 6.00

Bench note, Human GPR35 (Homo sapiens, UniProt Q9HC97): CCOc1cc(-c2cccc(C(O)(O)C(F)(F)F)c2)ccc1-c1nc2[nH]nnc2c(=O)[nH]1 [Compound 127] , pEC50 reads ≥ 6.00

Bench note, Human GPR35 (Homo sapiens, UniProt Q9HC97): CCOc1cc(-c2cccc(CC3OC(=O)NC3=O)c2)ccc1-c1nc2[nH]nnc2c(=O)[nH]1 (stereo not shown) [Compound 125] , pEC50 reads ≥ 6.00

Bench note, Human GPR35 (Homo sapiens, UniProt Q9HC97): CCOc1cc(-c2ccc(S(N)(=O)=O)cc2)ccc1-c1nc2[nH]nnc2c(=O)[nH]1 [Compound 107] , pEC50 reads 5.00 to 6.00
